Value source: ChEMBL document CHEMBL1138693

Method: Clearance of compound in rats after intravenous administration
Assay type: ADME, organism-based
Measurement Conditions: rat, in vivo
Assay Metric: clearance (mL/min/kg)
Numbers only, in mL/min/kg.

# Smiles String, Assay Metric, Val
data = [
    ("CC(C)[C@@H]1CC[C@@H](C)C[C@H]1OCC(=O)Nc1cc(Oc2ccc(C(=O)O)cc2)ccc1[N+](=O)[O-]", "clearance", 4.84),
]

// below: clearance requested for another molecule
Answer with the recorded clearance of "COc1cccc(CNc2ccc(N3CCN(c4cccc(C(F)(F)F)c4)CC3)c(C(F)(F)F)c2)c1Oc1ccc([N+](=O)[O-])cc1C(=O)O" only.
10.4
